Molecular target: T1, human FcRn/b2M (human, UniProt P61769 21-119, biotinylated)
T1 construct: bought recombinant biotinylated protein (ACRO FCM-H82W4 or Immunitrack ITF01); also called hFcRn; hFcRn/hb2M
Experiment: SPR pH 7.4;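 note: surface plasmon resonance kinetics, periplasmic extracts diluted 1:10 flowed over immobilized target at 25 °C, 120 s association then 600–3600 s dissociation, buffer with 150 mM NaCl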
quantity-measured: koff (s⁻¹)

T0263018B11 T96Y (VHH, name in Kabat numbering, FLAG3-His6 tagged) VHH: EVQLVESGGGVVQPGGSLRLSCAASGFTFSSYAMYWVRQAPGKGLEWVSAISSGGGSTDYADSVKGRFTISRDNSKNTLYLQMNSLRPEDTALYYCAADYLYTSLTWYSYWGQGTLVTVSS: 0.024
T0263018B11 S52D (VHH, name in Kabat numbering, FLAG3-His6 tagged) VHH: EVQLVESGGGVVQPGGSLRLSCAASGFTFSSYAMYWVRQAPGKGLEWVSAIDSGGGSTDYADSVKGRFTISRDNSKNTLYLQMNSLRPEDTALYYCAADTLYTSLTWYSYWGQGTLVTVSS: 0.14
T0263018B11 A33Q (VHH, name in Kabat numbering, FLAG3-His6 tagged) VHH: EVQLVESGGGVVQPGGSLRLSCAASGFTFSSYQMYWVRQAPGKGLEWVSAISSGGGSTDYADSVKGRFTISRDNSKNTLYLQMNSLRPEDTALYYCAADTLYTSLTWYSYWGQGTLVTVSS: 0.065
T0263018B11 G26Q (VHH, name in Kabat numbering, FLAG3-His6 tagged) VHH: EVQLVESGGGVVQPGGSLRLSCAASQFTFSSYAMYWVRQAPGKGLEWVSAISSGGGSTDYADSVKGRFTISRDNSKNTLYLQMNSLRPEDTALYYCAADTLYTSLTWYSYWGQGTLVTVSS: 0.034
T0263018B11 T100bE (VHH, name in Kabat numbering, FLAG3-His6 tagged) VHH: EVQLVESGGGVVQPGGSLRLSCAASGFTFSSYAMYWVRQAPGKGLEWVSAISSGGGSTDYADSVKGRFTISRDNSKNTLYLQMNSLRPEDTALYYCAADTLYTSLEWYSYWGQGTLVTVSS: 0.032
T0263018B11 A93V (VHH, name in Kabat numbering, FLAG3-His6 tagged) VHH: EVQLVESGGGVVQPGGSLRLSCAASGFTFSSYAMYWVRQAPGKGLEWVSAISSGGGSTDYADSVKGRFTISRDNSKNTLYLQMNSLRPEDTALYYCVADTLYTSLTWYSYWGQGTLVTVSS: 0.15

a: T0263018B11 S52Q (VHH, name in Kabat numbering, FLAG3-His6 tagged) VHH: EVQLVESGGGVVQPGGSLRLSCAASGFTFSSYAMYWVRQAPGKGLEWVSAIQSGGGSTDYADSVKGRFTISRDNSKNTLYLQMNSLRPEDTALYYCAADTLYTSLTWYSYWGQGTLVTVSS
b: T0263018B11 F29S (VHH, name in Kabat numbering, FLAG3-His6 tagged) VHH: EVQLVESGGGVVQPGGSLRLSCAASGFTSSSYAMYWVRQAPGKGLEWVSAISSGGGSTDYADSVKGRFTISRDNSKNTLYLQMNSLRPEDTALYYCAADTLYTSLTWYSYWGQGTLVTVSS
(Q) Smaller koff value? Options are a and b Your choice should be expressed through its label.
(A) b
(b: 0.066 s⁻¹, a: 0.15 s⁻¹)
